Source: paper PMC5700166

Target: GST-Ap-NF-kB RHD (Exaiptasia pallida (Aiptasia), UniProt A0A913YAJ5 2-422)
Sequence: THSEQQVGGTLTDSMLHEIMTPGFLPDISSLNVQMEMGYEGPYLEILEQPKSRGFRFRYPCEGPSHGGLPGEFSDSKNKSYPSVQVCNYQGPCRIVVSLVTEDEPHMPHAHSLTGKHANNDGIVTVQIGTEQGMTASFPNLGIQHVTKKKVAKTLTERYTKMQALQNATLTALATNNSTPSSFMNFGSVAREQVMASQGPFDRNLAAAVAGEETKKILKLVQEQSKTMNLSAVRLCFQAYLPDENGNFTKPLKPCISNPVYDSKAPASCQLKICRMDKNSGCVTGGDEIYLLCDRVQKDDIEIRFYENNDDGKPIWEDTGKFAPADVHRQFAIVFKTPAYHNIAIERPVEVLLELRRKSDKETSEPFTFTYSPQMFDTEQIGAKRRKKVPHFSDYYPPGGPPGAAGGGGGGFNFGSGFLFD
Test: protein-binding microarray (PBM); PBM: ~300 nM protein, 6 mM HEPES pH 7.8, 80 mM KCl, 0.5 mM EDTA, 0.5 mM EGTA, 6% glycerol, 35 ng/ul poly-dIdC, 1% milk, 1 h, room temperature; Ap Aiptasia and Nv Nematostella (sea anemones) / Co Capsaspora / Aq Amphimedon (sponge) / Dm Drosophila / Hu human; RHD is the Rel homology domain; high values mean tight binding
Settings: dsDNA, one strand shown
Give binding signal for every item shown.
Answers are plain numbers, in z-score.

CCGATTAACATCAATATTTCCCCTGATGTTAATCGGGTCTTGATTCGCTTGACGCTGCTG 8.09
CCGATTAACATCAGGGGGTTAACTGATGTTAATCGGGTCTTGATTCGCTTGACGCTGCTG 5.36
CCGATTAACATCAGCAACCCCCCTGATGTTAATCGGGTCTTGATTCGCTTGACGCTGCTG 5.04
CCGATTAACATCAAAATTACCCCTGATGTTAATCGGGTCTTGATTCGCTTGACGCTGCTG 4.94

I'm hoping you can list binding signal for every sequence here, please.
1. CCGATTAACATCAGGGGACCCCCTGATGTTAATCGGGTCTTGATTCGCTTGACGCTGCTG
2. CCGATTAACATCAGGGGAGATAATGATGTTAATCGGGTCTTGATTCGCTTGACGCTGCTG

1. 9.65
2. 5.17
